Tested on: A549 NSCLC
procedureText: NCI tumour cell line growth inhibition, 48 h
Each item that follows carries a reported GI50.

>>> reported("N#CC1=C(N)NC(=S)C(C#N)C12Nc1ccccc1S2 (stereo not given)")
"23.1 µM"
>>> reported("COc1cccc(C2CC(=O)Nc3cc4c(cc32)CCC4)c1OC (stereo not given)")
"0.859 µM"
>>> reported("C=C1C(=O)C23CC1CCC2C12CO[C@@]3(O)[C@@H](O)C1C(C)(C)C=CC2=O (stereo not given in full)")
"16.3 µM"
>>> reported("CCOc1cccc(/C=N/NC(=O)Cc2ccc(Nc3ccnc(C(F)(F)F)c3)cc2)c1O")
"4.09 µM"

GET GI50 | system: A549 NSCLC | item: O=C(Nc1nc2ccc(F)cc2s1)c1cccnc1Nc1ccc(Cl)cc1Cl 3.51 µM

GET GI50 | system: A549 NSCLC | item: Cc1nc2cc(Nc3nc(Nc4ccc(F)cc4)nc(-c4ccc(Cl)cc4)n3)ccc2n1Cc1ccccc1 6.18 µM

GET GI50 | system: A549 NSCLC | item: COc1ccc(-c2nn(-c3cccc(Cl)c3)cc2/C=C2\C(=N)N(c3ccccc3)N=C2N)cc1 0.54 µM

GET GI50 | system: A549 NSCLC | item: Cc1ccc(S(=O)c2ccc([N+](=O)[O-])c3nonc23)cc1 (stereo not given) 18.7 µM

GET GI50 | system: A549 NSCLC | item: COc1ccc(-c2conc2-c2ccccc2)cc1 0.502 µM

GET GI50 | system: A549 NSCLC | item: CCCCCCCCCCCCNC(=O)[C@H]1CSC(c2ccsc2)N1 (stereo not given in full) 6.77 µM

* * *

Tested on: OVCAR-8 ovarian
procedureText: NCI tumour cell line growth inhibition, 48 h
assayEndpoint: TGI (µM)
Your answer is read as µM, so omit the unit and give the number.

Example entries and their recorded answers appear below.
>>> reported("COc1ccc(-c2nn(-c3cccc(Cl)c3)cc2-c2cc(-c3cccs3)no2)cc1")
36
>>> reported("COc1cccc(C2CC(=O)Nc3cc4c(cc32)CCC4)c1OC (stereo not given)")
31.9
>>> reported("CCCCCCCCCCCCCCCCCCNC(=O)[C@H]1CSC(c2ccc(F)c(OC)c2)N1 (stereo not given in full)")
2.7

GET TGI | system: OVCAR-8 ovarian | item: C/C(=N\O)[C@H]1CC[C@@]2(C)[C@@H]3CC[C@H]4C(C)(C)/C(=N/O)CC[C@@]45CC35CC[C@]12C (stereo not given in full) 9.39

GET TGI | system: OVCAR-8 ovarian | item: CN(C)CCN1C(=O)N(CCN(C)C)c2c3cc(O)ccc3nc3c([N+](=O)[O-])ccc1c23 36

* * *

Each item that follows carries a reported TGI.
Tested on: SR leukemia
procedureText: NCI tumour cell line growth inhibition, 48 h

Example entries and their recorded answers appear below.
>>> reported("CSc1ncnc2c1cnn2Cc1cn(COCC(O)CO)nn1 (centres undefined)")
"> 100 µM"
>>> reported("Cc1cc2c(-c3nc4ccccn4c3NC34CC5CC(CC(C5)C3)C4)c(O)c(O)cc2c(O)c1-c1c(C)cc2c(-c3nc4ccccn4c3NC34CC5CC(CC(C5)C3)C4)c(O)c(O)cc2c1O")
"4.86 µM"
>>> reported("COc1cccc(Nc2nc3c([nH]2)c(=O)n(C)c(=O)n3C)c1")
"> 10 µM"

Okay, next one:
GET TGI | system: SR leukemia | item: CCOC(=O)c1c(-c2ccc(OC)cc2)c(C#N)c(=S)n(C2OC(CO)C(O)C(O)C2O)c1C (centres undefined) > 100 µM

* * *

System: HCT-15 colon
procedureText: NCI tumour cell line growth inhibition, 48 h
Each item that follows carries a reported TGI.

>>> reported("Cc1cc2c(-c3nc4ccccn4c3NC34CC5CC(CC(C5)C3)C4)c(O)c(O)cc2c(O)c1-c1c(C)cc2c(-c3nc4ccccn4c3NC34CC5CC(CC(C5)C3)C4)c(O)c(O)cc2c1O")
"> 25 µM"
>>> reported("O=C(O)Cn1c[n+](NC(=O)Cc2ccccc2)cn1")
"> 10 µM"

Read the entry O=c1ncccn1C1OC(CO)C(O)C1F (centres undefined) and write its reported TGI. > 100 µM

Read the entry CCCCCc1cc(CCCC)sc1-c1ccco1 and write its reported TGI. > 100 µM

Read the entry Clc1sc(Cl)c2c1[C@H](Br)C[C@@H]2Cl and write its reported TGI. 40.7 µM

Read the entry OC(CCN1CCN(CCOC(c2ccc(F)cc2)c2ccc(F)cc2)CC1)c1ccc(Br)cc1 (centres undefined) and write its reported TGI. 8.25 µM

* * *

System: K-562 leukemia
procedureText: NCI tumour cell line growth inhibition, 48 h
assayEndpoint: TGI (µM)
Your answer is read as µM, so omit the unit and give the number.

>>> reported("COc1ccc2c(c1)CCC(CN1CCN(CCOC(c3ccccc3)c3ccccc3)CC1)C2O (stereo not given)")
44.1
>>> reported("Cc1cc(Nc2cc(N3CCN(C)CC3)nc(C#Cc3ccccc3)n2)n[nH]1")
24.4
>>> reported("CC(Br)CN(CC(C)Br)c1ccc2c(c1)Cc1ccccc1-2 (stereo not given)")
33.2

Read the entry CCCCCCCCCCCCNC(=O)[C@H]1CSC(c2ccsc2)N1 (stereo not given in full) and write its reported TGI. 2.04

* * *

Test system: 786-0 renal
procedureText: NCI tumour cell line growth inhibition, 48 h
assayEndpoint: GI50

Example entries and their recorded answers appear below.
>>> reported("Cc1ccc(S(=O)c2ccc([N+](=O)[O-])c3nonc23)cc1 (stereo not drawn)")
"13.2 µM"
>>> reported("CC(=O)[O-].O=[N+]([O-])c1ccc([O-])c(C=NCCN=Cc2cc([N+](=O)[O-])ccc2[O-])c1.[Mn+3]")
"> 100 µM"
>>> reported("COc1ccc(-c2nn3ncccc3c2-c2ccnc(Nc3cccc(C(F)(F)F)c3)n2)cc1")
"9.98 µM"
>>> reported("CNc1ccc(N=Nc2cccc3ncccc23)cc1")
"> 88.4 µM"
>>> reported("Cc1cc([C@H](C)Nc2nccc(N3C(=O)OC[C@@H]3[C@H](C)F)n2)ncc1-c1ccnc(C(F)(F)F)c1")
"42.4 µM"
>>> reported("COc1ccc(-c2nc(/C=N/Nc3cc(C)nc4ccc(Br)cc34)c(C)o2)cc1")
"1.71 µM"
>>> reported("NC1(C(=O)O)CSSC1")
"21.6 µM"

Read the entry COc1ccc(-c2nn(-c3cccc(Cl)c3)cc2-c2cc(-c3cccs3)no2)cc1 and write its reported GI50. 3.39 µM

* * *

Test system: OVCAR-3 ovarian
procedureText: NCI tumour cell line growth inhibition, 48 h
Each item that follows carries a reported TGI.

>>> reported("CCOc1ccccc1NC(=O)CCC(=O)NN")
"> 100 µM"
>>> reported("CCCCCCCCCCCCNC(=O)[C@H]1CSC(c2ccsc2)N1 (stereo not given in full)")
"1.81 µM"
>>> reported("COc1ccc2nc3cc(Cl)ccc3c(Nc3ccc(O)c(CN4CCCC4)c3)c2c1")
"15 µM"
>>> reported("O=C(O)C(CS)N=Cc1nc(-c2ccccc2)oc1O (stereo not given)")
"> 100 µM"
>>> reported("CCOC(=O)c1c(-c2ccc(OC)cc2)c(C#N)c(=S)n(C2OC(CO)C(O)C(O)C2O)c1C (stereo not given)")
"> 100 µM"

GET TGI | system: OVCAR-3 ovarian | item: OCCN(CCO)c1ncnc2c1sc(=S)n2-c1ccccc1 > 100 µM

GET TGI | system: OVCAR-3 ovarian | item: O=C1CN(c2ccccc2)C(=O)C1C(=O)Nc1ccc(Cl)c(Cl)c1 (stereo not given) 12.6 µM

GET TGI | system: OVCAR-3 ovarian | item: COc1ccc(C2NC(=S)NC3=C2COc2ccc(F)cc23)cc1OC (stereo not given) 49.9 µM

GET TGI | system: OVCAR-3 ovarian | item: CC(C)NC(=O)OCc1c(COC(=O)NC(C)C)n(C)c2c1ccc1cc(Cl)c(Cl)cc12 31.1 µM

GET TGI | system: OVCAR-3 ovarian | item: COC(=O)C1=C(C(=O)OC)C(C(=O)OC)C(C(=O)OC)C(C(=O)OC)(C(=O)OC)C(C(=O)OC)=C1C(=O)OC (stereo not given) 28.9 µM

* * *

Each item that follows carries a reported TGI.
System: UO-31 renal
procedureText: NCI tumour cell line growth inhibition, 48 h

>>> reported("Oc1ccc(C[C@@H]2CN[C@H](Cc3ccc(O)c(Br)c3)CN2)cc1")
"> 100 µM"

Read the entry C1=CC=C2NCCSCCNC3=CC=CC=CC3=NCCSCCN=C2C=C1 and write its reported TGI. > 100 µM

Read the entry CC1=NN(c2cccc(Cl)c2)C2(C1=Cc1ccc(N(C)C)cc1)C(Cl)C(=O)N2c1nc2ccccc2s1 (stereo unspecified) and write its reported TGI. > 100 µM

Read the entry CCOc1cccc(/C=N/NC(=O)Cc2ccc(Nc3ccnc(C(F)(F)F)c3)cc2)c1O and write its reported TGI. 20.7 µM

Read the entry NCCn1c2c(c3ccccc3c1=O)C(=O)c1ccccc1-2 and write its reported TGI. 5.33 µM

Read the entry CC12CCC(=O)[C@@]1(C)CCCC2=O (stereo partly specified) and write its reported TGI. > 100 µM

Read the entry CCCC/C=C1\CCC(CN2CCCC2)C1=O (stereo unspecified) and write its reported TGI. 32.3 µM

Read the entry O=c1n(CCCN2CCOCC2)nc2n1-c1ccc3ccccc3c1SC2 and write its reported TGI. 45.7 µM

Read the entry CC1(C)Oc2ccccc2N2O[C@@H]3C(=O)N(c4ccccc4)C(=O)[C@@H]3C21c1ccccc1 (stereo partly specified) and write its reported TGI. > 100 µM

Read the entry OCCN(CCO)c1ncnc2c1sc(=S)n2-c1ccccc1 and write its reported TGI. > 100 µM

Read the entry Nn1nnc2ccccc21 and write its reported TGI. > 100 µM
